B1: Hairpin Ribozyme (parent)
chain: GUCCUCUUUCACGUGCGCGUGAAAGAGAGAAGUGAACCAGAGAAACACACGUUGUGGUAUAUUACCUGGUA

Variants of: B1
Assay: self-cleavage, relative activity (ratio to wild type); higher = more cleavage; co-transcriptional
Reported values of self-cleavage for individual entries
assay_endpoint: self-cleavage

>>> number("C18G G32U")
0.1
>>> number("U14G C50U")
0.2
>>> number("C4U C50U")
0.213
>>> number("C16G U67A")
0.097
>>> number("G13A A45G")
0.161
>>> number("A41C G56C")
0.237
>>> number("A11C A43C")
0
>>> number("G13U A24G")
0.681
>>> number("U2C U55G")
0.0647
>>> number("U5C A26U")
0.505

Data origin, for the record: the RNAGym collection of RNA variant scans (doi:10.7554/elife.80360)
